# testSystem: UniProtKB P21917
# Sequence (P21917 whole entry): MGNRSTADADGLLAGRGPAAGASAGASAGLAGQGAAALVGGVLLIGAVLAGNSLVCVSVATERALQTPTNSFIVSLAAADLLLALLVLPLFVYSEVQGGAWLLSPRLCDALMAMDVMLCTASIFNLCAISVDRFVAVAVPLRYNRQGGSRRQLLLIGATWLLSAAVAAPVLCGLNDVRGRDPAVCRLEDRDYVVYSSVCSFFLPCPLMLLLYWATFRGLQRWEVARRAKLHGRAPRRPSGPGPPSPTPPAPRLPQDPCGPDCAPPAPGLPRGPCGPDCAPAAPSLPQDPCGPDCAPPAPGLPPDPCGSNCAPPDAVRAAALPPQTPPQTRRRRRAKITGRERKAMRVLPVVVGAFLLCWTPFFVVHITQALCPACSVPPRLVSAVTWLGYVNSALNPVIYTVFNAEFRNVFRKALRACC
pKi: −log10 of the molar value.
readoutLabel: pKi

molecule="O=C1C(=Nc2cccc(C(F)(F)F)c2)c2ccccc2N1c1ccccc1 [Example 92]" readoutlabel=pKi measurednumber=4.38

* * *

# testSystem: UniProtKB P28221
# Sequence (P28221 whole entry): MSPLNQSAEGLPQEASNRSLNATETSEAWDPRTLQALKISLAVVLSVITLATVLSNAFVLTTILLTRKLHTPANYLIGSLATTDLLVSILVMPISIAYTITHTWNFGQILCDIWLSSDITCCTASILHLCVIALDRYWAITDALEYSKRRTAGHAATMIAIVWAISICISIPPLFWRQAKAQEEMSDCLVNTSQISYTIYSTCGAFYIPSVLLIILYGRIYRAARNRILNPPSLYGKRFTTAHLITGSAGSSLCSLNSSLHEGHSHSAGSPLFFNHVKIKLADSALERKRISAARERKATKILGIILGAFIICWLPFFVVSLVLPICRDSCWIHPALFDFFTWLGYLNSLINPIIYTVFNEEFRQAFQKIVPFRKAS
pKi: −log10 of the molar value.
readoutLabel: pKi

smilesinput=O=C1C(=Nc2cccc(C(F)(F)F)c2)c2ccccc2N1c1ccccc1 testsystem="UniProtKB P28221" measurednumber=4.49

* * *

# testSystem: human GAL2 receptor (Homo sapiens)
# Construct: expressed in transfected cells
# Sequence (O43603 whole entry): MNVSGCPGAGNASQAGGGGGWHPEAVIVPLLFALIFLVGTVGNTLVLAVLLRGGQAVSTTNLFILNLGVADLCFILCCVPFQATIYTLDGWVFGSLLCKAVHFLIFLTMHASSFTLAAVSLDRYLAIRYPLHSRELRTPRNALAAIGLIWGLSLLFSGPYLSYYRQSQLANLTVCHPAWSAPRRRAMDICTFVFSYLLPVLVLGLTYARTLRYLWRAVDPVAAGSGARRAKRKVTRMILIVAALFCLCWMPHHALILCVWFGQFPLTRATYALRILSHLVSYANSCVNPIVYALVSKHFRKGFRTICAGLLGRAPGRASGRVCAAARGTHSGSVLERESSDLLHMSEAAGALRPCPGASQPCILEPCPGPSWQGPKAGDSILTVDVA
# methodDescription: Radioligand binding at cloned human GAL2 receptor
# conditionContext: pyrimidines, Tables 1-3, read-out: Ki (nM) GalR2
readoutLabel: Ki

compound=CN(C)c1cc(Nc2ccc(C(C)(C)C)cc2)nc(Nc2ccccc2)n1 testsystem="human GAL2 receptor (Homo sapiens)" readoutlabel=Ki result="> 5000 nM"
compound=Cc1ccc(Nc2cc(N3CCCCC3)nc(N3Cc4cccc5cccc(c45)C3)n2)cc1 testsystem="human GAL2 receptor (Homo sapiens)" readoutlabel=Ki result="> 5000 nM"
compound=Cc1ccc(Nc2cc(N(C)C)nc(Nc3ccccc3)n2)cc1 testsystem="human GAL2 receptor (Homo sapiens)" readoutlabel=Ki result="> 5000 nM"
compound=Cc1ccc(Nc2cc(N3CCCCC3)nc(N(C)CCc3c[nH]c4ccccc34)n2)cc1Cl testsystem="human GAL2 receptor (Homo sapiens)" readoutlabel=Ki result="> 5000 nM"
compound=Cc1ccc(Nc2cc(N3CCCCC3)nc(N3CCc4ccccc43)n2)cc1 testsystem="human GAL2 receptor (Homo sapiens)" readoutlabel=Ki result="> 5000 nM"
compound=Cc1ccc(Nc2cc(N3CCCCC3)nc(Nc3ccccc3)n2)cc1 testsystem="human GAL2 receptor (Homo sapiens)" readoutlabel=Ki result="> 5000 nM"
compound=CN(C)c1cc(Nc2ccc(Oc3ccccc3)cc2)nc(Nc2ccccc2)n1 testsystem="human GAL2 receptor (Homo sapiens)" readoutlabel=Ki result="> 5000 nM"
compound=CN(CCc1c[nH]c2ccccc12)c1nc(NCCc2ccccc2)cc(N2CCCCC2)n1 testsystem="human GAL2 receptor (Homo sapiens)" readoutlabel=Ki result="2000 nM"
compound=Cc1ccc(Nc2cc(N3CCCCC3)nc(N3CCN(c4cccc(C(F)(F)F)n4)CC3)n2)cc1 testsystem="human GAL2 receptor (Homo sapiens)" readoutlabel=Ki result="> 5000 nM"
compound=CN(C)c1cc(Nc2cccc(F)c2)nc(Nc2ccccc2)n1 testsystem="human GAL2 receptor (Homo sapiens)" readoutlabel=Ki result="> 5000 nM"
compound=Cc1ccc(Nc2cc(N(C)C)nc(N3CCN(c4cccc(C)c4)CC3)n2)cc1 testsystem="human GAL2 receptor (Homo sapiens)" readoutlabel=Ki result="> 5000 nM"
compound="C[C@H]1CC2CC([C@@H]1Nc1cc(N(C)C)nc(Nc3ccccc3)n1)C2(C)C (stereo partly drawn)" testsystem="human GAL2 receptor (Homo sapiens)" readoutlabel=Ki result="944 nM"
compound=CN(C)c1cc(Nc2ccc(Br)cc2)nc(Nc2ccccc2)n1 testsystem="human GAL2 receptor (Homo sapiens)" readoutlabel=Ki result="> 5000 nM"
compound=CN(C)c1cc(Nc2ccccc2)nc(Nc2ccccc2)n1 testsystem="human GAL2 receptor (Homo sapiens)" readoutlabel=Ki result="> 5000 nM"
compound=Cc1ccc(Nc2cc(N(C)C)nc(N3CCN(S(=O)(=O)c4ccc(C)cc4)CC3)n2)cc1 testsystem="human GAL2 receptor (Homo sapiens)" readoutlabel=Ki result="> 5000 nM"
compound=CN(C)c1cc(Nc2ccc3ccccc3c2)nc(Nc2ccccc2)n1 testsystem="human GAL2 receptor (Homo sapiens)" readoutlabel=Ki result="> 5000 nM"
compound=Cc1ccc(Nc2nc(Nc3cccc(C)c3)cc(N(C)C)n2)cc1 testsystem="human GAL2 receptor (Homo sapiens)" readoutlabel=Ki result="> 5000 nM"
compound=Cc1ccc(Nc2cc(N3CCCCC3)nc(Nc3ccc(C)cc3)n2)cc1 testsystem="human GAL2 receptor (Homo sapiens)" readoutlabel=Ki result="> 5000 nM"
